test.details: Steady-state pharmacokinetics in food effect cohorts
Format: in vivo, human
stated.conditions: human, plasma, oral, 300 mg
value.type: Tmax (h)
I only need the number, in h, no unit after it.

# return recorded Tmax for input `CNCc1ccc(-c2[nH]c3cc(F)cc4c3c2CCNC4=O)cc1`
2.47

* * *

test.details: Steady-state pharmacokinetics in food effect cohorts
Type: in vivo, human
stated.conditions: human, plasma, oral, 600 mg
value.type: Tmax (h)
# output: bare number, implied unit h

Query Tmax for CNCc1ccc(-c2[nH]c3cc(F)cc4c3c2CCNC4=O)cc1 [rucaparib]
1.92

* * *

test.details: Steady-state pharmacokinetics in food effect cohorts
Type: in vivo, human
stated.conditions: human, plasma, oral, 600 mg, AUC0‐t, arithmetic mean, Part 3, 600 mg BID, cycle 1 day 15 steady state, t = 10 hours, n 18
value.type: AUC (ng·h/mL)
Respond with the bare value in ng·h/mL.

Tell us which AUC value is on record for CNCc1ccc(-c2[nH]c3cc(F)cc4c3c2CCNC4=O)cc1 [rucaparib]
15800
